test system: Enterococcus sp.; test: In vitro antibacterial evaluation: minimum inhibitory concentration (MIC), broth dilution method; type: cell-based; details: broth dilution, 5×10^5 CFU/mL, 18 hours at 35° C.
measuredProperty: MIC Enterococccus avium (GC 4558) (µg/mL)
Reply numerically in µg/mL, unit not repeated.

MIC Enterococccus avium (GC 4558) lookup needed for CCCCCCCC1OCC2OC(OC3C(CO)OC(Oc4ccc(CC5NC(=O)C(C(C)c6ccccc6)NC(=O)CNC(=O)C(CO)NC(=O)C(C(O)C6CNC(=N)N6C6OC(CO)C(O)C(O)C6O)NC(=O)C(C(O)C6CNC(=N)N6)NC5=O)cc4)C(O)C3O)C(O)C(O)C2O1 (stereo not shown) , thanks.
2

MIC Enterococccus avium (GC 4558) lookup needed for CC(c1ccccc1)C1NC(=O)CNC(=O)C(CO)NC(=O)C(C(O)C2CNC(=N)N2C2OC(CO)C(O)C(O)C2O)NC(=O)C(C(O)C2CNC(=N)N2)NC(=O)C(Cc2ccc(OC3OC(CO)C(OC4OC(COC(=O)OCc5ccccc5)C(O)C(O)C4O)C(O)C3O)cc2)NC1=O (stereo not shown) [Example 101a] , thanks.
16

MIC Enterococccus avium (GC 4558) lookup needed for CC(c1ccccc1)C1NC(=O)CNC(=O)C(CO)NC(=O)C(C(O)C2CNC(=N)N2C2OC(CO)C(O)C(O)C2O)NC(=O)C(C(O)C2CNC(=N)N2)NC(=O)C(Cc2ccc(OC3OC(CO)C(OC4OC5COC(c6cccs6)OC5C(O)C4O)C(O)C3O)cc2)NC1=O (stereo not shown) , thanks.
16

MIC Enterococccus avium (GC 4558) lookup needed for Cc1cccc(C2OCC3OC(OC4C(CO)OC(Oc5ccc(CC6NC(=O)C(C(C)c7ccccc7)NC(=O)CNC(=O)C(CO)NC(=O)C(C(O)C7CNC(=N)N7C7OC(CO)C(O)C(O)C7O)NC(=O)C(C(O)C7CNC(=N)N7)NC6=O)cc5)C(O)C4O)C(O)C(O)C3O2)c1 (stereo not shown) , thanks.
2

Numbers sourced from patent US8247211B2.
